# Lookup of reported melting point keyed by entry

Some solved cases for reference:
| Compound | Value reported |
| --- | --- |
| Oc1ccc2ccc(C(O)C(F)(F)F)cc2c1 (stereo unspecified) | 174 to 175 °C |
| CCOC(=O)c1cn2c(n1)CN(C(C)=O)CC2 | 97 °C |
| CN1CCN(C(=O)c2ccc(-n3nc(-c4ccccc4O)nc3-c3ccccc3O)cc2)CC1 | 226 to 229 °C |
| CCOc1ccccc1C1CN=C(NC(=O)OC)N1C (stereo unspecified) | 137 to 138 °C |
| c1ccc(C2CNc3ccccc3O2)cc1 (stereo unspecified) | 113 to 116 °C |
| CCc1ncc2c3c(ccc2n1)OCC(CN1CC=C(c2c[nH]c4ccccc24)CC1)O3 (stereo unspecified) | 203 to 211 °C |

If you can, please state the reported melting point value of Cc1ccccc1N(CCC(=O)O)C(=O)Cl .
112 °C

====

# Lookup of reported melting point keyed by entry

Some solved cases for reference:
| Compound | melting point |
| --- | --- |
| Nc1cccc(C(=O)Nc2ccc(C(=O)N3CCCc4ccccc43)cc2)c1 | 206 °C |
| O=C1Nc2ccccc2C12COc1cc3c(cc12)OCCO3 (stereo not given) | > 250 °C |
| Cc1oc(-c2ccco2)nc1COc1ccc(COc2nn(Cc3ccccc3)cc2C(N)=O)cc1 | 139 to 140 °C |
| Cc1nc(-c2ccc3c(=O)n(CC(C)C)c(CNC(=O)OC(C)(C)C)c(-c4ccccc4)c3c2)sc1C(N)=O | 227 to 228 °C |
| CCCC1Cc2cc(OCC(=O)O)c(Cl)c(Cl)c2C1=O (stereo not given) | 199 to 203 °C |

If you can, please state the reported melting point value of CC(C)n1nc(-c2sc(NC(=O)COc3ccccc3)nc2-c2ccccc2)ccc1=O .
243 to 244 °C

If you can, please state the reported melting point value of CC(=O)c1cnc(Br)c(C)c1 .
114 to 115 °C

If you can, please state the reported melting point value of N#Cc1cn(-c2c(Cl)cc(C(F)(F)F)cc2Cl)c(N)c1I .
130 to 132 °C

If you can, please state the reported melting point value of O=C(Cc1cc(C(F)(F)F)cc(C(F)(F)F)c1)N1CCN(C(=O)CNC2CCN(Cc3ccccc3)CC2)C(c2ccccc2)C1 (stereo not given) .
49 to 52 °C

If you can, please state the reported melting point value of COc1cc2c(cc1C(C)(C)C)CCC2Cc1c[nH]cn1 (stereo not given) .
174 to 184 °C

If you can, please state the reported melting point value of CCc1noc(-c2cn(-c3cccc(Oc4ccccc4)c3)cn2)n1 .
108 to 109 °C

If you can, please state the reported melting point value of CCOC(=O)C=C(C)c1ccc([N+](=O)[O-])cc1 .
71 to 74 °C

If you can, please state the reported melting point value of BrC(Br)(Br)c1ccc2cc(I)ccc2n1 .
124 to 126 °C

If you can, please state the reported melting point value of O=C1N[C@H](C(=O)O)Cc2cc(O)c(O)cc21 .
268 to 272 °C

If you can, please state the reported melting point value of CSc1cccc(Cc2sc(NC(C)=O)nc2CO)c1 .
140 to 142 °C

If you can, please state the reported melting point value of CNC(=O)Cc1c(C(=O)c2cc(C)ccn2)[nH]c2cc(Cl)ccc12 .
231 °C

If you can, please state the reported melting point value of CCN1C(=O)C(NC(=O)C(F)(F)F)CCc2c1ccc(Nc1ncc(Cl)c(Nc3ccccc3S(=O)(=O)C(C)C)n1)c2OC (stereo not given) .
245 to 247 °C

If you can, please state the reported melting point value of COc1ccc(S(=O)(=O)C(C)(CCCCN2C(=O)c3ccccc3C2=O)C(=O)NO)cc1 (stereo not given) .
146 to 148 °C

If you can, please state the reported melting point value of Fc1cc2c(cc1CN1CCOCC1)Cc1c(-c3ccsc3)n[nH]c1-2 .
222 °C

If you can, please state the reported melting point value of CC(C)(C)OC(=O)N1CCN(CC(O)CNc2ccc(CC#N)cc2)CC1 (stereo not given) .
86 to 87 °C

====

Assay endpoint: melting point

Some solved cases for reference:
| Compound | Assay endpoint | Value reported |
| --- | --- | --- |
| O=C(CCC1(C(=O)O)CCCC1)OCc1ccc([N+](=O)[O-])cc1 | melting point | 78 to 80 °C |
| O=C1NCCc2c1c1ccccc1n2CC1CCCC1 | melting point | 179 to 181 °C |
| CC1(c2ccc(F)cc2)OC(C=Cc2ccc(C#N)cc2)=CC1=O (stereo unspecified) | melting point | 140 to 142 °C |

If you can, please state the reported melting point value of Nc1ccc(Cl)c(C(=O)c2sc(Nc3ccc4nc[nH]c4c3)nc2N)c1Cl .
235 to 237 °C

If you can, please state the reported melting point value of CC(C)c1cc(Oc2ccc(Cl)c(Cl)c2)nc(C(C)C)c1N=CN(C)C .
102 to 103 °C

If you can, please state the reported melting point value of C#CCCN1C(=O)c2cccc3cccc(c23)C1=O .
191 to 193 °C

If you can, please state the reported melting point value of CC1Cc2cc(F)c(F)cc2C1=O (stereo unspecified) .
66 to 68 °C

If you can, please state the reported melting point value of COc1cc(OCc2ccccn2)ccc1/C=C/c1cc(/C=C/c2ccc3ccn(S(C)(=O)=O)c3c2)n[nH]1 .
212 to 214 °C

====

# Lookup of reported melting point keyed by entry

| Compound | Value reported |
| --- | --- |
| CCOC(=O)CCc1cccc(-c2c(CC(=O)Nc3ccc(F)cc3C(F)(F)F)c(=O)oc3cc(Cl)c(C)cc23)c1 | 121 to 123 °C |
| Cc1ccc(-c2nc(CCl)co2)o1 | 93 to 94 °C |

If you can, please state the reported melting point value of CC(=O)c1ccc2c(c1)Sc1ccccc1C=C2 .
82 to 84 °C

If you can, please state the reported melting point value of C=Cc1cccc(-c2nc(CCOc3ccc(OC(C)(C)C(=O)O)cc3)c(C)o2)c1 .
137 to 139 °C

If you can, please state the reported melting point value of CCOc1cc2cc(OC)c(OC)cc2c(Cc2ccc(OC)c(OC)c2)n1 .
110 to 112 °C

If you can, please state the reported melting point value of CCN1CCN(C(C(=O)O)c2ccc(Nc3nc(-c4cccc(NC(=O)c5cc6c(s5)CCCCC6)c4C)cn(C)c3=O)cc2)CC1 (stereo not given) .
168 to 170 °C

If you can, please state the reported melting point value of NC(=O)c1c(C(=O)O)cnn1-c1ccc(Br)cc1 .
251 to 252 °C

If you can, please state the reported melting point value of C=C(CC(C)C)C(=O)O .
101 to 105 °C

If you can, please state the reported melting point value of Nc1cccc2nccnc12 .
87 to 90 °C

If you can, please state the reported melting point value of COc1ccc2[nH]c(C(=O)O)c(-c3ccccc3F)c2c1 .
206 to 208 °C

====

# Lookup of reported melting point keyed by entry
Number in °C, nothing else.

| Substance smiles | Value reported |
| --- | --- |
| CCCCCCCCNC(=O)Nc1ccccc1C(=O)NC1CCN(Cc2ccccc2)CC1 | 129 |

Now consider the entry below.
If you can, please state the reported melting point value of CCOc1cc(C(C)C)c2c(c1)S(=O)(=O)N(CSc1ccccc1)C2=O .
112

====

# Lookup of reported melting point keyed by entry

| Compound | Value reported |
| --- | --- |
| CCCCCCCCCCCCCCOc1ccc(C(=O)C(Br)c2ccc([N+](=O)[O-])cc2)cc1 (stereo not given) | 55 to 56 °C |
| O=CNC(Cl)C(Cl)(Cl)CCl (stereo not given) | 55 to 57 °C |
| CCN(CC)C(=O)N[C@H]1CC[C@H](NC(=O)N(CC)CC)CC1 | 225 to 228 °C |
| Cc1nnc(S)n1-c1ccccc1F | 119 to 120 °C |
| N#CC=Cc1ccc(Cl)cc1C(=O)c1ccccc1F | 130 to 133 °C |
| COC(=O)C(=O)c1c(F)cc(OCCOc2ccc3ccccc3c2)cc1F | 130 to 131 °C |
| CCOc1ccc(CC(=O)Nc2ccc(S(=O)(=O)Nc3ccccc3C(=O)O)cc2)cc1 | 241 to 242 °C |
| N#CC(C#N)=CN(N=C(C#N)C#N)c1ccc(F)cc1F | 140 to 142 °C |

If you can, please state the reported melting point value of O=CNCc1ccc2[nH]cc(CCNC(=O)OCc3ccccc3)c2c1 .
114 to 116 °C

If you can, please state the reported melting point value of C=CCn1cc(C(=O)O)c(=O)c2cc(F)c(N3CCOCC3)cc21 .
210 °C
